// reported activity change, negative = inhibition per item
# Test Description: NFAT Signaling Pathway (AID 444);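 note: carbachol stimulus at about its EC50 of 1 µM final; % is set by controls: 0 for no effect and ±100 for the full control effect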
# Assay Conditions: Jurkat NFAT-bla M1, carbachol, beta-lactamase ratio, 5 h; at 17.2 µM (top of the series) unless noted
# Experimental: NCGC Assay Overview: The nuclear factor of activated T cells (NFAT) family of transcription factors has been found primarily in most immune system cells and some other non-immune cells. NFAT plays the immunomodulatory role, primarily in T-cell activation and differentiation. […] NCGC Assay Protocol Summary: The cells were prepared in RPMI 1640 medium containing 0.1% dialyzed FBS and 25 mM HEPES at 1.6 x 10^6cell/ml. […] The %Activity was determined from the ratio of 460nm/530nm. […]
Results filed as inconclusive are left out. The source made the active and inactive calls. Calls come from the whole dose curve; as a rule, active = well fitted curve in either direction with a large enough effect (not every such curve was filed as active); inconclusive = small, poorly fitted or top-dose-only effect, or another doubt; inactive = flat fitted curve, though single readings scatter.

Compound	activity change, negative = inhibition
CCOc1ccc(-n2c(O)c(C=NCCN3CCNCC3)c(=O)[nH]c2=O)cc1	0.77% (inactive)
OCCOCC#CCN1CCOCC1	-4.14% (inactive)
CCN1C[C@]2(C)CC[C@@H](O)[C@]34[C@@H]5CC6[C@@H](OC)C[C@@](O)([C@H]5[C@@H]6O)[C@@H](C[C@@H]23)[C@H]14	6.29% [at 38 µM] (inactive)
CN1CCc2nc(SCC(=O)OC(C)(C)C)c(C#N)cc2C1	-15.8% (inactive)
C=C(C)[C@@H]1CN[C@H](C(=O)O)[C@H]1CC(=O)O	0.349% [at 38 µM] (inactive)
C=CCOC(=O)C1=C(C)OC(N)=C(C#N)C12C(=O)N(CN1CCOCC1)c1ccccc12 (stereo not given)	-2.25% (inactive)
CCCCCC[C@H]1C(=O)O[C@H](C)[C@H](NC(=O)c2cccc(NC=O)c2O)C(=O)O[C@@H](C)[C@H]1OC(=O)CC(C)C	-34.3% (inactive)
CC1(C)NCCN2C(=O)CSC21 (stereo not given)	0.762% (inactive)
CCCCCCn1c(O)c(C=NCCN2CCCCC2)c(=O)[nH]c1=O	4.87% (inactive)
OC1(c2ccc(F)cc2)CCNC1 (stereo not given)	-14.3% (inactive)

Every entry's value here was drawn from PubChem BioAssay (NCATS).
